Target: Chemerin-like receptor 1 (Mus musculus, UniProt P97468)
Sequence (P97468 whole entry): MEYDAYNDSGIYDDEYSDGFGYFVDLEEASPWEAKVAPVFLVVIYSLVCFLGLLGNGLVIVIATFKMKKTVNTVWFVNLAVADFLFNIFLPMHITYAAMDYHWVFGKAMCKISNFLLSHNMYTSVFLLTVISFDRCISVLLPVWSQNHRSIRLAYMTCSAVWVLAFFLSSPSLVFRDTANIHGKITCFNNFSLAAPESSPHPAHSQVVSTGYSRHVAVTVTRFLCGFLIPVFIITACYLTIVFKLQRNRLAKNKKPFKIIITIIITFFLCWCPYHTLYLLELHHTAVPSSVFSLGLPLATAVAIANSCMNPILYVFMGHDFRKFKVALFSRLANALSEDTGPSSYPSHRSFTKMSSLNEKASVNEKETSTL
Experiment: Inhibition of chemR23 expressed in mouse BA/F3 cells assessed as reduction in chemerin-induced intracellular calcium ion concentration preincubated for 45 mins followed by chemerin addition
pIC50: −log10 of the molar value.

{"smiles entry": "CCCCN(c1nc2cc(NC(=O)NC)ccc2o1)[C@H](C)c1ccc(-c2ccccc2-c2nnn[nH]2)cc1", "qualifier sign": "=", "pIC50": 6.03}
{"smiles entry": "CCCCN(c1nc2cc(NC(N)=O)ccc2o1)[C@H](C)c1ccc(-c2ccccc2-c2nnn[nH]2)cc1", "qualifier sign": "=", "pIC50": 6.37}
{"smiles entry": "CCCCN(c1nc2cc(CC(=O)NC)ccc2o1)[C@H](C)c1ccc(-c2ccccc2-c2nnn[nH]2)cc1", "qualifier sign": "<", "pIC50": 5.00}
{"smiles entry": "CCCCN(c1nc2cc(N(C)C(N)=O)ccc2o1)[C@H](C)c1ccc(-c2ccccc2-c2nnn[nH]2)cc1", "qualifier sign": "<", "pIC50": 5.00}
{"smiles entry": "CCCCN(c1nc2cc(NC(C)=O)ccc2o1)[C@H](C)c1ccc(-c2ccccc2-c2nnn[nH]2)cc1", "qualifier sign": "=", "pIC50": 5.68}
{"smiles entry": "CCCCN(c1nc2cc(CNC(=O)NC)ccc2o1)[C@H](C)c1ccc(-c2ccccc2-c2nnn[nH]2)cc1", "qualifier sign": "=", "pIC50": 4.89}
{"smiles entry": "CCCCN(c1nc2cc(NC(=O)N(C)C)ccc2o1)[C@H](C)c1ccc(-c2ccccc2-c2nnn[nH]2)cc1", "qualifier sign": "=", "pIC50": 6.29}

###

biological target: Chemerin-like receptor 1 (Homo sapiens); test: Agonist activity at chemR23 expressed in human CAL1 cells assessed as increase in intracellular calcium ion concentration
pEC50: −log10 of the molar value.

{"compound": "c1cncc(CN(Cc2ccc(-c3ccccc3-c3nnn[nH]3)cc2)c2nc3ccccc3o2)c1", "target entity": "Chemerin-like receptor 1 (Homo sapiens)", "pEC50": "< 5.00"}
{"compound": "CCCCN(Cc1ccc(-c2ccccc2-c2nnn[nH]2)cc1)c1nc2cc(C(=O)OC)ccc2o1", "target entity": "Chemerin-like receptor 1 (Homo sapiens)", "pEC50": "< 5.00"}
{"compound": "CCCCN(Cc1ccc(-c2ccccc2-c2nnn[nH]2)cc1)c1nc2cc(Cl)c(C)cc2o1", "target entity": "Chemerin-like receptor 1 (Homo sapiens)", "pEC50": "< 5.00"}
{"compound": "CCCCN(Cc1ccc(-c2ccccc2-c2nnn[nH]2)cc1)c1nc2cc(CC(=O)OC)ccc2o1", "target entity": "Chemerin-like receptor 1 (Homo sapiens)", "pEC50": "< 5.00"}
{"compound": "c1ccc(CN(Cc2ccc(-c3ccccc3-c3nnn[nH]3)cc2)c2nc3ccccc3o2)nc1", "target entity": "Chemerin-like receptor 1 (Homo sapiens)", "pEC50": "< 5.00"}
{"compound": "COCCN(Cc1ccc(-c2ccccc2-c2nnn[nH]2)cc1)c1nc2ccccc2o1", "target entity": "Chemerin-like receptor 1 (Homo sapiens)", "pEC50": "< 5.00"}
{"compound": "CCCCN(c1nc2ccccc2o1)C(c1ccc(-c2ccccc2-c2nnn[nH]2)cc1)C1CC1 (stereo not given)", "target entity": "Chemerin-like receptor 1 (Homo sapiens)", "pEC50": "< 5.52"}
{"compound": "CCCCN(c1nc2ccccc2o1)C(C)(C)c1ccc(-c2ccccc2-c2nnn[nH]2)cc1", "target entity": "Chemerin-like receptor 1 (Homo sapiens)", "pEC50": "< 5.00"}
{"compound": "c1ccc(CN(Cc2ccc(-c3ccccc3-c3nnn[nH]3)cc2)c2nc3ccccc3o2)cc1", "target entity": "Chemerin-like receptor 1 (Homo sapiens)", "pEC50": "< 5.00"}
{"compound": "CCCCN(Cc1ccc(-c2ccccc2-c2nnn[nH]2)cc1)c1nc2cc(Cl)cc(Cl)c2o1", "target entity": "Chemerin-like receptor 1 (Homo sapiens)", "pEC50": "< 5.00"}

###

molecular target: Chemerin-like receptor 1 (Homo sapiens, UniProt Q99788); assay: Agonist activity at chemR23 expressed in human CAL1 cells assessed as increase in intracellular calcium ion concentration
pEC50: −log10 of the molar value.
Recorded measurements of pEC50, one per entry

{"smiles entry": "CCCCN(c1nc2ccccc2o1)[C@@H](C)c1ccc(-c2ccccc2-c2nnn[nH]2)cc1", "target entity": "Chemerin-like receptor 1 (Homo sapiens, UniProt Q99788)", "pEC50": "< 5.00"}
{"smiles entry": "c1ccc(-c2nnn[nH]2)c(-c2ccc(CN(Cc3ccncc3)c3nc4ccccc4o3)cc2)c1", "target entity": "Chemerin-like receptor 1 (Homo sapiens, UniProt Q99788)", "pEC50": "< 5.00"}
{"smiles entry": "CCCCN(Cc1ccc(-c2ccccc2-c2nnn[nH]2)cc1)c1nc2cc(Cl)cc(C)c2o1", "target entity": "Chemerin-like receptor 1 (Homo sapiens, UniProt Q99788)", "pEC50": "< 5.00"}

###

Molecular target: Chemerin-like receptor 1 (Homo sapiens)
Sequence (Q99788 whole entry): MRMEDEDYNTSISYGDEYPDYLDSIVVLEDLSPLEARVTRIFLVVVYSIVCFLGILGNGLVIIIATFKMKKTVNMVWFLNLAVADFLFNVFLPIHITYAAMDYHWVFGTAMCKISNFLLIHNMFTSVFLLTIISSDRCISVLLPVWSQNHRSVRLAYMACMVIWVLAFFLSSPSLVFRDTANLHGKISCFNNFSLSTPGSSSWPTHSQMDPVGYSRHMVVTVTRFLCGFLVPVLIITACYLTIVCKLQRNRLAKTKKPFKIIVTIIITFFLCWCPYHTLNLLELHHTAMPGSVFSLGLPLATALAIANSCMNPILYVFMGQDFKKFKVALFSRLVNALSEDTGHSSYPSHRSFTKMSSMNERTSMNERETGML
Assay: Inhibition of chemR23 in human CAL1 cells assessed as reduction in chemerin-induced intracellular calcium ion concentration preincubated for 45 mins followed by chemerin addition
parameter: IC50 (nM)

{"molecule": "CCCCN(Cc1ccc(-c2ccccc2-c2nnn[nH]2)cc1)c1nc2cc(Cl)cc(Cl)c2o1", "parameter": "IC50", "qualifier sign": "=", "recorded measurement": 1200}
{"molecule": "CCCCN(c1nc2ccccc2o1)C(CC)c1ccc(-c2ccccc2-c2nnn[nH]2)cc1 (stereo not given)", "parameter": "IC50", "qualifier sign": "=", "recorded measurement": 940}
{"molecule": "CCCCN(c1nc2ccccc2o1)[C@H](C)c1ccc(-c2ccccc2-c2nnn[nH]2)cc1", "parameter": "IC50", "qualifier sign": "=", "recorded measurement": 110}
{"molecule": "CCCCN(c1nc2ccccc2o1)C(c1ccc(-c2ccccc2-c2nnn[nH]2)cc1)C1CC1 (stereo not given)", "parameter": "IC50", "qualifier sign": ">", "recorded measurement": 3000}
{"molecule": "CCCCN(c1nc2ccccc2o1)C(C)c1ccc(-c2ccccc2-c2nnn[nH]2)cc1 (racemic)", "parameter": "IC50", "qualifier sign": "=", "recorded measurement": 250}
{"molecule": "c1cncc(CN(Cc2ccc(-c3ccccc3-c3nnn[nH]3)cc2)c2nc3ccccc3o2)c1", "parameter": "IC50", "qualifier sign": ">", "recorded measurement": 10000}
{"molecule": "CCCCN(c1nc2cc(CNC(=O)NC)ccc2o1)[C@H](C)c1ccc(-c2ccccc2-c2nnn[nH]2)cc1", "parameter": "IC50", "qualifier sign": "=", "recorded measurement": 48}
{"molecule": "CCCCN(Cc1ccc(-c2ccccc2-c2nnn[nH]2)cc1)c1nc2cc(CC(=O)OC)ccc2o1", "parameter": "IC50", "qualifier sign": "=", "recorded measurement": 2400}
{"molecule": "CCCCN(Cc1ccc(-c2ccccc2-c2nnn[nH]2)cc1)c1nc2cc(C(=O)OC)ccc2o1", "parameter": "IC50", "qualifier sign": "=", "recorded measurement": 4300}
{"molecule": "CCCCCN(Cc1ccc(-c2ccccc2-c2nnn[nH]2)cc1)c1nc2ccccc2o1", "parameter": "IC50", "qualifier sign": "=", "recorded measurement": 3300}
{"molecule": "CCCCN(Cc1ccc(-c2ccccc2-c2nnn[nH]2)cc1)c1nc2ccccc2o1", "parameter": "IC50", "qualifier sign": "=", "recorded measurement": 3300}
{"molecule": "CCCCN(Cc1ccc(-c2ccccc2-c2nnn[nH]2)cc1)c1nc2cc(CC(=O)NC)ccc2o1", "parameter": "IC50", "qualifier sign": "=", "recorded measurement": 1000}
{"molecule": "CCCCN(c1nc2cc(C(=O)NC)ccc2o1)[C@H](C)c1ccc(-c2ccccc2-c2nnn[nH]2)cc1", "parameter": "IC50", "qualifier sign": "=", "recorded measurement": 38}
{"molecule": "CCCCN(Cc1ccc(-c2ccccc2-c2nnn[nH]2)cc1)c1nc2cc(Cl)c(C)cc2o1", "parameter": "IC50", "qualifier sign": "=", "recorded measurement": 3300}
{"molecule": "CCCCN(c1nc2cc(NC(C)=O)ccc2o1)[C@H](C)c1ccc(-c2ccccc2-c2nnn[nH]2)cc1", "parameter": "IC50", "qualifier sign": "=", "recorded measurement": 440}
